For each of the binders below, state its % Blocking, Mutant apoL1 peptide.
# TARGET OR TEST SYSTEM: T1, serum resistance-associated protein (SRA) from Trypanosoma brucei rhodesiense, recombinant SRA (SEQ ID NO: … (Trypanosoma brucei rhodesiense, UniProt O96637 31-274))
# T1 construct: also called SRA protein
# T1 sequence: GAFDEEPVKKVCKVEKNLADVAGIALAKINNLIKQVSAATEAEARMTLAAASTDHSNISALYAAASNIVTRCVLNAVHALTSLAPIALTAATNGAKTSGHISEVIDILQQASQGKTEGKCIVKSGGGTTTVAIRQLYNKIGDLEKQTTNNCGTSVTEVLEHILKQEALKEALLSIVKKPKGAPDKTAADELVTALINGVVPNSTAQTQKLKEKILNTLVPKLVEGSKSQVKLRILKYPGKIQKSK
# ASSAY METHOD TEXT: SPR, mAb captured, pH 4.5, 25C; competitor biotin-mutant apoL1 peptide
Answers are plain numbers, in %.

H2aM10201N (antibody, V domains shown, Chimeric antibody, human variable domains and mouse constant domains (mouse Fc, prefix H2aM); also called H2M10201N) VH: QVQLLESGGGVVQPGKSLRLSCVASGSIFSIYGMNWVRQAPGKGLEWVASVSSDGSAKFYADSVKGRFTISRDNSNDTLFLQMTSLRAEDTAVYYCAKTLWNYLFDSWGQGTLVTVSS VL: ENVLTQSPDTLSLSPGERATLSCRASQSITSNYLAWYQQKPGQTPRLLISFTSRRATGIPDRFSGSGSGTVFTLTISRLEPEDFAVYYCQQYGTSLTFGGGAKVEIR: 0

Next, consider the following binder.
Problem: Quick one: % Blocking, Mutant apoL1 peptide of H2bM10093N (antibody, V domains shown, Chimeric antibody, human variable domains and mouse constant domains; also called H2aM10093N; H2M10093N) VH: EVQLVESGGGLVKPGGSLRLSCVASGFTLSGYSMNWVRQAPGKGLEWVSSISTSSSYIYYADSVQGRFTISRDNAKNSLYLQMNSLRAEDTAVYYCVRKGANWIYFDYWGQGTLVTVSS VL: DIQMTQSPSSVSASVGDRVTITCRASQGISSLLAWFQQKPGKAPNLLIYAASSLQSGVPSRFSGSGSGTDFTLTISSLQPEDFATYYCQQAKSFPFTFGPGTKVDIK ?
Result: 12
